- targetEntity: human CLDN18.2 (human)
- assayMethodText: cell-based or functional assay
Kindly state ADCC EC50, Jurkat-CD16a v158-NFAT-luciferase effector cells, NUGC-4 target cells for each of the entries shown.
Numbers only, in nM.

Go through the list and state ADCC EC50, Jurkat-CD16a v158-NFAT-luciferase effector cells, NUGC-4 target cells for each entry.
1. humanized antibody hz40F6-1.2 (antibody, human IgG1, kappa, V domains shown) VH: QVQLVESGGGVVQPGRSLRLSCAASGFTLTSYGVYWVRQAPGKGLEWVAVVWAGGNTNYNSALMSRFTISKDNSKSTLYLQMNSLRAEDTAVYYCARDRGRLLAMDYWGQGTLVTVSS VL: DIVMTQSPDSLAVSLGERATINCKSSQSLLNSGNQKNYLAWYQQKPGQPPKLLIYGASTRESGVPDRFTGSGSGTDFTLTISSLQAEDVAVYYCQNDHFFPFTFGQGTKVEIKR
2. humanized antibody hz40F6-2.1 (antibody, human IgG1, kappa, V domains shown) VH: QVQLVESGGGVVQPGRSLRLSCAASGFTLTSYGVYWVRQAPGKGLEWVAVVWAGGNTNYADSVKGRFTISKDNSKSTLYLQMNSLRAEDTAVYYCARDRGRLLAMDYWGQGTLVTVSS VL: DIVMTQSPDSLAVSLGERATINCKSSQSLLNSGNQKNYLAWYQQKPGQPPKLLIYGASTRESGVPDRFSGSGSGTDFTLTISSLQAEDVAVYYCQNDYFFPFTFGQGTKVEIKR
3. humanized antibody hz40F6-1.3 (antibody, human IgG1, kappa, V domains shown) VH: QVQLVESGGGVVQPGRSLRLSCAASGFTLTSYGVYWVRQAPGKGLEWVAVVWAGGNTNYADALKGRFTISKDNSKSTLYLQMNSLRAEDTAVYYCARDRGRLLAMDYWGQGTLVTVSS VL: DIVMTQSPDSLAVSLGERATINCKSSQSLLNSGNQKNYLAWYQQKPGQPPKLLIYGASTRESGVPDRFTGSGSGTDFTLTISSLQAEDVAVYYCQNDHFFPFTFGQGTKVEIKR

0.019
0.149
0.023
